Please respond with reported Ki for every item in the list.
# Target under test: human histamine H4 receptor (Homo sapiens)
# Sequence (Q9H3N8 whole entry): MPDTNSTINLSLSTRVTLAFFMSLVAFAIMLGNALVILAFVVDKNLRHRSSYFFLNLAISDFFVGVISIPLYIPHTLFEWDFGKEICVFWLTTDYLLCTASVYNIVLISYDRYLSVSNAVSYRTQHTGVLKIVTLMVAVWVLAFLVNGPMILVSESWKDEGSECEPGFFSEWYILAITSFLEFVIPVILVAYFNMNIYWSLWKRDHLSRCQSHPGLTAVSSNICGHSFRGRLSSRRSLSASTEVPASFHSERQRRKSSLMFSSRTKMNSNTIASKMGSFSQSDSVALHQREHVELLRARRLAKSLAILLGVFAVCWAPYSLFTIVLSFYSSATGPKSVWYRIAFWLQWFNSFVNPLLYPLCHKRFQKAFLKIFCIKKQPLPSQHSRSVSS
# Test protocol: biochemical
Provide only the numeric value, understood in nM.

Name the reported Ki value associated with the molecule Cc1cc(C)c2[nH]c(C(=O)N3CCN(C)CC3)cc2c1
30

Next entry: CC1CN(C(=O)c2cc3cc(Cl)ccc3[nH]2)CCN1C (stereo not drawn)
27

Same again, this time with CN1CCN(C(=O)c2cc3cccc(N)c3[nH]2)CC1
7

// repeat for CN1CCN(C(=O)c2cc3ccc(Cl)cc3[nH]2)CC1 and report
124

Next record, please: O=C(c1cc2cc(Cl)ccc2[nH]1)N1CCN(CCO)CC1
25

Follow-up entry: CN1CCN(C(=O)c2cc3cc(O)ccc3[nH]2)CC1
19

How about CN1CCN(C(=O)c2cc3cccc(O)c3[nH]2)CC1 ?
47

Cool, now CN1CCN(C(=O)c2cc3ccc(Br)cc3[nH]2)CC1
188

What do you get for CN1CCN(C(=O)c2cc3cc(Cl)cc(Cl)c3[nH]2)CC1 ?
10

Lookup C[C@@H]1CN(C(=O)c2cc3cc(Cl)ccc3[nH]2)CCN1
34

Same thing, different molecule: CN1CCN(C(=O)c2cc3cc(F)cc(F)c3[nH]2)CC1
19

Let us now turn to CC1CN(C(=O)c2cc3ccccc3[nH]2)CCN1 (stereo not drawn)
100

---

# Target under test: UniProt Q9H3N8
# Test protocol: biochemical
For each of the molecules below, state its Ki.
Reply numerically in µM, unit not repeated.

Need Ki of CN1CCN(C(=O)c2cc3c(Br)cccc3[nH]2)CC1 , thanks.
0.04

Also CN1CCN(C(=O)c2cc3cccc(Br)c3[nH]2)CC1 , if possible.
0.055

Proceed to Nc1cccc2cc(C(=O)N3CCNCC3)[nH]c12
0.043

Next record, please: CN1CCN(C(=S)c2cc3ccccc3[nH]2)CC1
0.132

Try the molecule CN1CCN(C(=O)c2cc3cc(F)ccc3[nH]2)CC1
0.018

---

# Test system: mouse bone marrow-derived mast cells
# Test protocol: Histamine-induced mast cell chemotaxis in vitro (transwell)
# Format: cell-based
# Test context: Mus musculus, Mast cell
Short version: inhibition at 1 µM at least 70% is 1.0, less is 0.0.

Given the entry CN1CCN(C(=O)c2cc3sc(Cl)cc3[nH]2)CC1 , answer whether its inhibition at 1 µM meets or surpasses 70%.
1.0

Cool, now Cc1csc2cc(C(=O)N3CCN(C)CC3)[nH]c12
0.0

One more compound: O=C(c1cc2cc(Cl)sc2[nH]1)N1CCN2CCCC2C1 (stereo not shown)
0.0

Also check Cc1ccc2[nH]c(C(=O)NC3CC4CCC(C3)N4C)nc2c1 (stereo not shown)
0.0

Try CN1CCN(C(=O)c2cc3cccc(N)c3[nH]2)CC1 next.
1.0

Then CN1CCN(C(=O)c2nc3cc(Cl)ccc3[nH]2)CC1 ?
1.0

Quick one: CN1CCN(C(=O)c2cc3cc(Cl)sc3[nH]2)CC1
1.0

Same read-out for O=C(c1cc2cc(Cl)ccc2[nH]1)N1CCNCC1 ?
1.0

Proceed to CN1CCN(C(=O)c2cc3cc(F)cc(F)c3[nH]2)CC1
1.0

What about this compound? Cc1cc(Cl)cc2cc(C(=O)N3CCN(C)CC3)[nH]c12
1.0

How about this compound: CC1CN(C(=O)c2cc3scc(Br)c3[nH]2)CCN1 (stereo not shown)
0.0

Quick one: O=C(c1nc2cc(Cl)ccc2[nH]1)N1CCNCC1
0.0

---

# System: human eosinophils
# Test protocol: Histamine-induced eosinophil shape change (GAFS)
# Format: cell-based
# Test context: Eosinophil; human eosinophils; read-out: IC50 for inhibition of histamine-induced eosinophil shape change
# Description: Human granulocytes were isolated from human blood by a Ficoll gradient. The red blood cells were lysed with 5-10× Qiagen lysis buffer at room temperature for 5-7 min. Granulocytes were harvested and washed once with FACS buffer. The cells were resuspended at a density of 2×10^6 cells/mL in reaction buffer. […] Ten minutes later, the cells were transferred to ice and fixed with 250 μL of ice-cold fixative buffer (2% formaldehyde) for 1 min.
What IC50 was measured for each of the following?
Write down the value, and be sure its unit follows.

Quick one: IC50 for S=C(NC1CCCCC1)N1CCC(c2cnc[nH]2)CC1 [Thioperamide] ?
1500 nM

Do the same for CN1CCN(C(=O)c2cc3cc(Cl)ccc3[nH]2)CC1 please
270 nM

---

# Target under test: UniProt Q9H3N8
# Test protocol: biochemical
Heads up, the class ranges for Ki are LOW = under 10 nM, MID = from 10 nM up to 40 nM, HIGH = 40 nM and over

Any idea which band COc1cccc(-c2ccc3[nH]c(C(=O)N4CCN(C)CC4)cc3c2)c1 is in?
HIGH

Try the compound CN1CCN(C(=O)c2cc3cccc(Cl)c3[nH]2)CC1
MID

Repeat with C[C@H]1CN(C(=O)c2cc3cc(Cl)ccc3[nH]2)CCN1
MID

Item: CN1CCN(C(=O)c2cc3c(Cl)c(Cl)ccc3[nH]2)CC1
MID

Check Cc1ccc2[nH]c(C(=O)N3CCN(C)CC3)cc2c1 too.
MID

Now give it for Cc1cccc2cc(C(=O)N3CCN(C)CC3)[nH]c12 too.
LOW

Do the same for CN1CCN(C(=O)c2cc3cc([N+](=O)[O-])ccc3[nH]2)CC1 please
HIGH

And what about the compound CN1CCN(C(=O)c2cc3cc(Br)ccc3o2)CC1 ?
HIGH

Record: Cc1cc(Cl)cc2cc(C(=O)N3CCN(C)CC3)[nH]c12
LOW

Continue with CN1CCN(C(=O)c2cc3ccc(O)cc3[nH]2)CC1
MID
